Every entry's value here was drawn from ChEMBL document CHEMBL1155237.

- test_description: Volume of distribution at steady state in Sprague-Dawley rat at 2 mg/kg, iv and 5 mg/kg, po
- Type: ADME, organism-based
- condition: in vivo, read-out: Vdss
Reported Vd is given for each of the following compounds.
Express it in L/kg; write the number only.

CNc1ncc2cc(-c3cc(C(=O)Nc4cccc(C(F)(F)F)c4)ccc3C)ccc2n1 : 3.6
CNc1ncc2cc(-c3c(C)ccc4c(Nc5cc(C(C)(C)C)nn5C)nccc34)ccc2n1 : 5.5
Cc1ccc2c(Nc3cccc(C(F)(F)F)c3)nccc2c1Nc1ncccc1-c1ccncn1 : 3.7
C#Cc1cccc(Nc2nccc3c(Nc4ncccc4-c4cc(NC)ncn4)c(C)ccc23)c1 : 2.2
CNc1cc(-c2cccnc2Nc2c(C)ccc3c(Nc4ccc(Cl)cc4)nccc23)ncn1 : 1.7
Cc1ccc2c(Nc3ccc(Cl)cc3)nccc2c1Nc1ncccc1-c1ccncn1 : 2.2
CNc1cc(-c2cccnc2Nc2c(C)ccc3c(Nc4ccc5sc(C)nc5c4)nccc23)ncn1 : 0.72
Cc1ccc2c(Nc3ccc(Cl)cc3)nccc2c1Nc1ncccc1-c1ncnc2[nH]cnc12.Cl.Cl.Cl : 1.9
CNc1ncc2cc(-c3c(C)ccc4c(Nc5ccc6c(c5)NC(=O)C6(C)C)nccc34)ccc2n1 : 4.3
Cc1ccc(C(=O)Nc2cccc(C(F)(F)F)c2)cc1Nc1ncccc1-c1ccncn1 : 1.9

Query compound follows.
Look up Vd: CNc1cc(-c2cccnc2Nc2c(C)ccc3c(Nc4ccc(C#N)cc4)nccc23)ncn1
0.37

====

- test_description: Clearance in CD1 mouse
- Assay type: ADME, organism-based
- condition: in vivo
readout: clearance (mL/min)
Express it in mL/min; write the number only.

Look up clearance: Cc1ccc2c(Nc3ccc(Cl)cc3)nccc2c1Nc1ncccc1-c1ncnc2[nH]cnc12.Cl.Cl.Cl
3.17

====

- test_description: AUC (0 to 24 hrs) in human A375 SQ2 cells xenografted po dosed CD1 mouse administered twice daily for 14 days
- Assay type: ADME, organism-based
- Set-up: time < 24 hr, route oral
- condition: in vivo
Reported AUC at 24 h is given for each of the following compounds.
Express it in ng·h/mL; write the number only.

CNc1cc(-c2cccnc2Nc2c(C)ccc3c(Nc4ccc5sc(C)nc5c4)nccc23)ncn1 : 12300
CNc1cc(-c2cccnc2Nc2c(C)ccc3c(Nc4ccc(C#N)cc4)nccc23)ncn1 : 52800

Look up AUC at 24 h: C#Cc1cccc(Nc2nccc3c(Nc4ncccc4-c4cc(NC)ncn4)c(C)ccc23)c1
9410

====

Reported Activity is given for each of the following molecules.
- System: A-375
- test_description: Antitumor activity against human A375 SQ2 cells xenografted in CD1 mouse assessed as regression of tumor growth at 35 mg/kg, po bid for 14 days
- Assay type: functional
Express it in %; write the number only.

C#Cc1cccc(Nc2nccc3c(Nc4ncccc4-c4cc(NC)ncn4)c(C)ccc23)c1 : 54
CNc1cc(-c2cccnc2Nc2c(C)ccc3c(Nc4ccc(C#N)cc4)nccc23)ncn1 : 17
CNc1ncc2cc(-c3c(C)ccc4c(Nc5ccc6c(c5)NC(=O)C6(C)C)nccc34)ccc2n1 : 75

Query molecule follows.
Look up Activity: CNc1cc(-c2cccnc2Nc2c(C)ccc3c(Nc4ccc5sc(C)nc5c4)nccc23)ncn1
24

====

- test_description: Clearance in Sprague-Dawley rat at 2 mg/kg, iv and 5 mg/kg, po
- Assay type: ADME, organism-based
- condition: in vivo
Is clearance at least 5 mL/min/kg? Then t. If not, f.

Example results:
CNc1cc(-c2cccnc2Nc2c(C)ccc3c(Nc4ccc(Cl)cc4)nccc23)ncn1 : f
CNc1cc(-c2cccnc2Nc2c(C)ccc3c(Nc4ccc(C#N)cc4)nccc23)ncn1 : f
Cc1ccc2c(Nc3ccc(Cl)cc3)nccc2c1Nc1ncccc1-c1ncnc2[nH]cnc12.Cl.Cl.Cl : t
CNc1cc(-c2cccnc2Nc2c(C)ccc3c(Nc4ccc5sc(C)nc5c4)nccc23)ncn1 : t
CNc1ncc2cc(-c3c(C)ccc4c(Nc5ccc6c(c5)NC(=O)C6(C)C)nccc34)ccc2n1 : t

Consider now this further compound.
Has Cc1ccc(C(=O)Nc2cccc(C(F)(F)F)c2)cc1Nc1ncccc1-c1ccncn1 a recorded clearance greater than or equal to 5 mL/min/kg?
t

====

- assay_target: Angiopoietin-1 receptor (Homo sapiens)
- Sequence (Q02763 whole entry): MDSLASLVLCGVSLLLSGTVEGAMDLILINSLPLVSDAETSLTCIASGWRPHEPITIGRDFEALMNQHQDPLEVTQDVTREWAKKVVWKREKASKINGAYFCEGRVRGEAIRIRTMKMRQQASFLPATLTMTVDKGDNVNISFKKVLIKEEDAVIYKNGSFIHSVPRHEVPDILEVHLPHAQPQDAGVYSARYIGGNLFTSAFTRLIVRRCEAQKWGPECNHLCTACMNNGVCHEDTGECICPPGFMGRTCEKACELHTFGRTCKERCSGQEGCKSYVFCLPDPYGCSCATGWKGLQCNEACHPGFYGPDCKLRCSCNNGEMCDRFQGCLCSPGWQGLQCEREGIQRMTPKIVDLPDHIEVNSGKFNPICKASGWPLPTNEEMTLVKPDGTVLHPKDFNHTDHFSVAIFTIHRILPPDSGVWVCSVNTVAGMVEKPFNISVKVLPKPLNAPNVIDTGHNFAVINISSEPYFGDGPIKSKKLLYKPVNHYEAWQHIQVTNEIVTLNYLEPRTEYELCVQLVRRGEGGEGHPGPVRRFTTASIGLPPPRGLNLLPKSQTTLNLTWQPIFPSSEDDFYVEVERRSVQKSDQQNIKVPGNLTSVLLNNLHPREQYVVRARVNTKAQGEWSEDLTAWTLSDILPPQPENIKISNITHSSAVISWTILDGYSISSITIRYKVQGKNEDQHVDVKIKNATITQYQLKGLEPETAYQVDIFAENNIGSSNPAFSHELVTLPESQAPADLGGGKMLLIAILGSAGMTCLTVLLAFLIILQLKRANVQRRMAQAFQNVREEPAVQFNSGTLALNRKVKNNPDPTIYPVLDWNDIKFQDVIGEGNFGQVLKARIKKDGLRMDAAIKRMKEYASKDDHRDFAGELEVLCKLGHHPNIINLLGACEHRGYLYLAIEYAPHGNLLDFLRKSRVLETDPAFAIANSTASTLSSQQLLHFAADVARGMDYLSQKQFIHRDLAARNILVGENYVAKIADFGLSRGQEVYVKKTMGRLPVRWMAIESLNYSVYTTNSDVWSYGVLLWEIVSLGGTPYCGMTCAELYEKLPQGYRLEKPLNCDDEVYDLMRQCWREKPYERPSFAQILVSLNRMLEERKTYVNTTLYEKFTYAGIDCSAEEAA
Could you please mark yes (1) for values of IC50 below 0.008 µM and no (0) for values at or above it?

Example results:
Cc1ccc2c(Nc3cccc(C(F)(F)F)c3)nccc2c1Nc1ncccc1-c1ccncn1 : no (0)
CNc1cc(-c2cccnc2Nc2c(C)ccc3c(Nc4ccc5sc(C)nc5c4)nccc23)ncn1 : yes (1)
CNc1ncc2cc(-c3cc(C(=O)Nc4cccc(C(F)(F)F)c4)ccc3C)ccc2n1 : yes (1)
CNc1ncc2cc(-c3c(C)ccc4c(Nc5ccc6c(c5)NC(=O)C6(C)C)nccc34)ccc2n1 : no (0)
Cc1ccc2c(Nc3ccc(Cl)cc3)nccc2c1Nc1ncccc1-c1ccncn1 : no (0)
CNc1ncc2cc(-c3c(C)ccc4c(Nc5ccc(Cl)cc5)nccc34)ccc2n1 : no (0)

Does the reported IC50 of CNc1cc(-c2cccnc2Nc2c(C)ccc3c(Nc4ccc(Cl)cc4)nccc23)ncn1 stay below 0.008 µM?
no (0)

Can you check Cc1ccc2c(Nc3ccc(Cl)cc3)nccc2c1Nc1ncccc1-c1ncnc2[nH]cnc12.Cl.Cl.Cl next?
no (0)

====

- assay_target: Tyrosine-protein kinase Lck (Homo sapiens, UniProt P06239)
- Sequence (P06239 whole entry): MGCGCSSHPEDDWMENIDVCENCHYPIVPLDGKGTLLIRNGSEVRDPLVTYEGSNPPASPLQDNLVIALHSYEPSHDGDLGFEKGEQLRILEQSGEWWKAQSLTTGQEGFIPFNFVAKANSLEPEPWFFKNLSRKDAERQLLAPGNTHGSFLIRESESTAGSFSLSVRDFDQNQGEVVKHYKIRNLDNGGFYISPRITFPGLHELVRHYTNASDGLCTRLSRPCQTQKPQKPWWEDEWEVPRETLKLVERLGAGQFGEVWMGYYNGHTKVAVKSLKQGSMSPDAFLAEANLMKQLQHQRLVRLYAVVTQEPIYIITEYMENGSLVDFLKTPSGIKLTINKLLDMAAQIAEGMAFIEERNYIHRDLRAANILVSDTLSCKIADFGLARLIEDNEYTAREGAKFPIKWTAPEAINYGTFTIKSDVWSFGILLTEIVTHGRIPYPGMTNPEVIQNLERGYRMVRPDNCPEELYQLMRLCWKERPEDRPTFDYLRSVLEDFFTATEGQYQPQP
Reported pIC50 is given for each of the following compounds.
pIC50 here: minus log base 10 of the concentration, concentration in moles per litre.

Look up pIC50: CNc1ncc2cc(-c3c(C)ccc4c(Nc5ccc6c(c5)NC(=O)C6(C)C)nccc34)ccc2n1
7.11

Can you check CNc1cc(-c2cccnc2Nc2c(C)ccc3c(Nc4ccc(Cl)cc4)nccc23)ncn1 next?
7.92

Can you check Cc1ccc2c(Nc3ccc(Cl)cc3)nccc2c1Nc1ncccc1-c1ncnc2[nH]cnc12.Cl.Cl.Cl next?
7.08

Can you check CNc1ncc2cc(-c3c(C)ccc4c(Nc5ccc(Cl)cc5)nccc34)ccc2n1 next?
6.96

Can you check Cc1ccc2c(Nc3ccc(Cl)cc3)nccc2c1Nc1ncccc1-c1ccncn1 next?
6.55

Can you check CNc1ncc2cc(-c3cc(C(=O)Nc4cccc(C(F)(F)F)c4)ccc3C)ccc2n1 next?
9.57

====

Reported clearance is given for each of the following compounds.
- test_description: Clearance in Sprague-Dawley rat at 2 mg/kg, iv and 5 mg/kg, po
- Type: ADME, organism-based
- condition: in vivo
Express it in mL/min/kg; write the number only.

C#Cc1cccc(Nc2nccc3c(Nc4ncccc4-c4cc(NC)ncn4)c(C)ccc23)c1 : 12.2
CNc1ncc2cc(-c3cc(C(=O)Nc4cccc(C(F)(F)F)c4)ccc3C)ccc2n1 : 26.7
CNc1ncc2cc(-c3c(C)ccc4c(Nc5cc(C(C)(C)C)nn5C)nccc34)ccc2n1 : 30

Look up clearance: Cc1ccc2c(Nc3cccc(C(F)(F)F)c3)nccc2c1Nc1ncccc1-c1ccncn1
20

Can you check Cc1ccc2c(Nc3ccc(Cl)cc3)nccc2c1Nc1ncccc1-c1ccncn1 next?
11.2

====

Assay system Vascular endothelial growth factor receptor 2 (Homo sapiens, UniProt P35968); read-out recorded as pIC50.
pIC50 here: minus log base 10 of the concentration, concentration in moles per litre.

C#Cc1cccc(Nc2nccc3c(Nc4ncccc4-c4cc(NC)ncn4)c(C)ccc23)c1 : 6.38
CNc1ncc2cc(-c3c(C)ccc4c(Nc5ccc6c(c5)NC(=O)C6(C)C)nccc34)ccc2n1 : 6.62
CNc1cc(-c2cccnc2Nc2c(C)ccc3c(Nc4ccc5sc(C)nc5c4)nccc23)ncn1 : 6.77
Cc1ccc2c(Nc3ccc(Cl)cc3)nccc2c1Nc1ncccc1-c1ncnc2[nH]cnc12.Cl.Cl.Cl : 6.00

Query molecule follows.
Param readout= pIC50; system= Vascular endothelial growth factor receptor 2 (Homo sapiens, UniProt P35968); entry= CNc1cc(-c2cccnc2Nc2c(C)ccc3c(Nc4ccc(Cl)cc4)nccc23)ncn1 ; returns value.
6.52

====

- assay_target: Serine/threonine-protein kinase B-raf (Homo sapiens, UniProt P15056, V600E)
- Sequence (P15056 2-766 V600E limits assumed): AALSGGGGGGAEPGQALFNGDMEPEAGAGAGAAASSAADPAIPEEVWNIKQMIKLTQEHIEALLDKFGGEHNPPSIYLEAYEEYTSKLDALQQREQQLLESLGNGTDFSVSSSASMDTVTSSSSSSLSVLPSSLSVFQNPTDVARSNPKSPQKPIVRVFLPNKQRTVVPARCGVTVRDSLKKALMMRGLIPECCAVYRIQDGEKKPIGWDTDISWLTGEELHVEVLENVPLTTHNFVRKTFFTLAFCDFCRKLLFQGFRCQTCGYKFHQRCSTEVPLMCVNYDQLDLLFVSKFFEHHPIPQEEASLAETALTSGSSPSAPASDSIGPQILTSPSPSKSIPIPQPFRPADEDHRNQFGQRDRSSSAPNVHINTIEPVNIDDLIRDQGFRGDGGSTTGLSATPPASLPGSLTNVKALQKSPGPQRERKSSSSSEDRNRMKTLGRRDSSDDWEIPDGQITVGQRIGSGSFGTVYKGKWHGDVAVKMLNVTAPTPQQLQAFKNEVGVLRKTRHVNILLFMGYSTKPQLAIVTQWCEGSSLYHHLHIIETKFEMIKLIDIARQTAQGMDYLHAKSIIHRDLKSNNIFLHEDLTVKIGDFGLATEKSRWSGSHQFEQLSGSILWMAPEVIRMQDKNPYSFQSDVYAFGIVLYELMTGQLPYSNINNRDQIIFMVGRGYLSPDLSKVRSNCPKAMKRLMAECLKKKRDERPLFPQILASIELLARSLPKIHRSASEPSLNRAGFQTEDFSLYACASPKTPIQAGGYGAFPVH
- test_description: Inhibition of recombinant Braf V600E mutant
readout: IC50 (nM)
Express it in nM; write the number only.

# example entries with known answers
CNc1cc(-c2cccnc2Nc2c(C)ccc3c(Nc4ccc(C#N)cc4)nccc23)ncn1 : 39
Cc1ccc2c(Nc3cccc(C(F)(F)F)c3)nccc2c1Nc1ncccc1-c1ccncn1 : 17

Query compound follows.
Param readout= IC50; system= Serine/threonine-protein kinase B-raf (Homo sapiens, UniProt P15056, V600E); entry= CNc1ncc2cc(-c3c(C)ccc4c(Nc5ccc(Cl)cc5)nccc34)ccc2n1 ; returns value.
5.4

====

Reported inhibition in vivo at 35 mg/kg is given for each of the following compounds.
- Tested on: Mus musculus
- test_description: Inhibition of ERK phosphorylation in human A375 SQ2 cells xenografted CD1 mouse at 35 mg/kg, po bid after 6 hrs
- Format: functional
- condition: CD1, A375-SQ2, 6 h
Lab note: write values as number then unit, every time.

CNc1ncc2cc(-c3c(C)ccc4c(Nc5ccc6c(c5)NC(=O)C6(C)C)nccc34)ccc2n1 : 85%
C#Cc1cccc(Nc2nccc3c(Nc4ncccc4-c4cc(NC)ncn4)c(C)ccc23)c1 : 81%

Look up inhibition in vivo at 35 mg/kg: CNc1cc(-c2cccnc2Nc2c(C)ccc3c(Nc4ccc5sc(C)nc5c4)nccc23)ncn1
66%

Can you check CNc1cc(-c2cccnc2Nc2c(C)ccc3c(Nc4ccc(C#N)cc4)nccc23)ncn1 next?
78%
